tested on: pigweed; assay: Test B pre-/postemergence herbicide test; type: in vivo, Amaranthus retroflexus; details: Postemergence, 500 g ai/ha; visual rating after 13 to 15 days, scale 0 (no effect) to 100 (complete control)
Reported values of Plant response rating, Pigweed for individual entries
Reply with just the number.

Reference set, count: 4
- CCCn1nc(C(C)(C)C)cc1C(=O)Nc1cccc(C(C)=NO)c1: 100
- CCn1nc(C(C)(C)C)cc1C(=O)Nc1cccc(C(=O)NC(C)C)c1: 100
- CC(=NO)c1cccc(NC(=O)c2cc(C(C)(C)C)nn2C)c1: 10
- CCn1nc(C(C)(C)C)cc1C(=O)Nc1cccc(C(=O)NCCF)c1: 100

The record that follows has no Plant response rating, Pigweed shown yet.
Quick one: Plant response rating, Pigweed of `CCn1nc(C(C)(C)C)cc1C(=O)Nc1cccc2c1CCN(C1CCCC1)C2=O` ?
30

Taken from patent US20060069132A1.
